Tested on: mouse macrophages
protocol: stimulated release of TNF-α from mouse macrophages
Format: cell-based
test parameters: Macrophage; Table 2, TNF-α release from mouse macrophages; read-out: EC50 (nM) (mouse)
property: EC50

O=C(N[C@H]1C[C@@H]1c1ccccc1)[C@@H]1CN(C(=O)c2ccc(C(=O)N3C[C@@H](C(=O)N[C@H]4C[C@@H]4c4ccccc4)[C@H](C(=O)N[C@H]4C[C@@H]4c4ccccc4)C3)c3ccccc23)C[C@H]1C(=O)N[C@H]1C[C@@H]1c1ccccc1 ... > 5000 nM
O=C(N[C@H]1C[C@@H]1c1ccccc1)[C@@H]1CN(C(=O)c2ccc3cc(C(=O)N4C[C@@H](C(=O)N[C@H]5C[C@@H]5c5ccccc5)[C@H](C(=O)N[C@H]5C[C@@H]5c5ccccc5)C4)ccc3c2)C[C@H]1C(=O)N[C@H]1C[C@@H]1c1ccccc1 ... 380 nM
O=C(N[C@H]1C[C@@H]1c1ccccc1)[C@@H]1CN(C(=O)Cc2ccc(CC(=O)N3C[C@@H](C(=O)N[C@H]4C[C@@H]4c4ccccc4)[C@H](C(=O)N[C@H]4C[C@@H]4c4ccccc4)C3)cc2)C[C@H]1C(=O)N[C@H]1C[C@@H]1c1ccccc1 ... > 5000 nM

O=C(N[C@H]1C[C@@H]1c1ccccc1)[C@@H]1CN(C(=O)c2cccc3c(C(=O)N4C[C@@H](C(=O)N[C@H]5C[C@@H]5c5ccccc5)[C@H](C(=O)N[C@H]5C[C@@H]5c5ccccc5)C4)cccc23)C[C@H]1C(=O)N[C@H]1C[C@@H]1c1ccccc1 yielded EC50 of > 5000 nM

O=C(N[C@H]1C[C@@H]1c1ccccc1)[C@@H]1CN(C(=O)Cc2cccc(CC(=O)N3C[C@@H](C(=O)N[C@H]4C[C@@H]4c4ccccc4)[C@H](C(=O)N[C@H]4C[C@@H]4c4ccccc4)C3)c2)C[C@H]1C(=O)N[C@H]1C[C@@H]1c1ccccc1 yielded EC50 of > 5000 nM
